Source: PubChem BioAssay AID248

test system: L1210 leukemia ip in BDF1 mice, survival T/C; assay: NCI In Vivo Anticancer Drug Screen. Data for tumor model L1210 Leukemia (intraperitoneal) in B6D2F1 (BDF1) mice; details: endpoint: mean survival time; dose: 100.0 mg/kg/injection; schedule: Q01DX009 (ip); vehicle: saline with Tween-80; higher = longer survival
Inconclusive results and toxic doses are left out. Peptide text beside a SMILES is read from it. * marks the point of attachment. ONp = O=[N+]([O-])c1ccc(O*)cc1; Cbz = O=C(OCc1ccccc1)*
Recorded T/C by entry

> print(dat)
                                   molecule  measure.name  recorded.measurement
1  O=C(CNC(=O)OCc1ccccc1)NCC(=O)Oc1ccc([N+](=O)[O-])cc1 (Cbz-Gly-Gly-ONp)           T/C      108 % of control
2        CC(=O)Oc1oc(-c2ccccc2)nc1-c1ccccc1           T/C      108 % of control
3   O=[N+]([O-])c1ccc(/C=C/C=C/c2ccccc2)cc1           T/C      105 % of control

// next item, T/C requested
For CC(=O)COc1cccc(Cl)c1Cl , what is its reported T/C?
98 % of control

* * *

System: L1210 leukemia ip in BDF1 mice, survival T/C
Experiment: NCI In Vivo Anticancer Drug Screen. Data for tumor model L1210 Leukemia (intraperitoneal) in B6D2F1 (BDF1) mice
Details: endpoint: mean survival time; dose: 400.0 mg/kg/injection; schedule: Q04DX003 (ip); vehicle: saline with Tween-80; higher = longer survival
Method: The antitumor activity of compounds was measured in mice bearing transplantable tumors. Survival or tumor size were measured and the results are expressed as the measurement made in the treated group (T) divided by the measurement made in the vehicle treated control group (C). The tumor model used in this assay is L1210 Leukemia (intraperitoneal) in B6D2F1 (BDF1) mice
Inconclusive results and toxic doses are left out. Peptide text beside a SMILES is read from it. * marks the point of attachment. ONp = O=[N+]([O-])c1ccc(O*)cc1; Cbz = O=C(OCc1ccccc1)*
Recorded T/C by entry

# count of solved cases: 8
> print(dat)
                                   molecule  measure.name  recorded.measurement
1        CCCCCCCCCCCC(=O)Nc1ccc(NC(C)=O)cc1           T/C       95 % of control
2            CCCCSCc1nc2nc(Cl)c(Cl)nc2[nH]1           T/C       98 % of control
3  CC(=O)OCC(OC(C)=O)C(OC1OC(COC(C)=O)C(OC(C)=O)C(OC(C)=O)C1OC(C)=O)C(OC(C)=O)C(C=O)OC(C)=O (stereo unspecified)           T/C       94 % of control
4  O=C(CNC(=O)OCc1ccccc1)NCC(=O)Oc1ccc([N+](=O)[O-])cc1 (Cbz-Gly-Gly-ONp)           T/C       92 % of control
5        CC(=O)Oc1oc(-c2ccccc2)nc1-c1ccccc1           T/C      104 % of control
6  Cc1ccc(NC(=S)NC(=O)c2cccc([N+](=O)[O-])c2)cc1C           T/C      106 % of control
7    O=S(=O)(O)SCCCNCCCCCCCCNCCCSS(=O)(=O)O           T/C       88 % of control
8  Cc1cc(C)c(NS(=O)(=O)c2ccc([N+](=O)[O-])cc2)c(C)c1           T/C       86 % of control

For O=C(Nc1ccc(Cl)cc1)c1cccnc1 , what is its reported T/C?
91 % of control

Same read-out for c1ccc2c(c1)OC1(CCSCC1)O2 ?
97 % of control

Same read-out for CCOP(OCC)Oc1ccccc1 ?
100 % of control
